biological target: α1d (rat receptor expressed in mouse fibroblasts) (Rattus norvegicus); construct: expressed in transfected cells; host or cells: mouse fibroblasts; test: Radioligand binding, [3H]-prazosin, α1d; settings: rat receptor expressed in mouse fibroblasts, [3H]-prazosin; read-out: Radioligand Binding Ki α1d (Rat)
Sequence (P23944 whole entry): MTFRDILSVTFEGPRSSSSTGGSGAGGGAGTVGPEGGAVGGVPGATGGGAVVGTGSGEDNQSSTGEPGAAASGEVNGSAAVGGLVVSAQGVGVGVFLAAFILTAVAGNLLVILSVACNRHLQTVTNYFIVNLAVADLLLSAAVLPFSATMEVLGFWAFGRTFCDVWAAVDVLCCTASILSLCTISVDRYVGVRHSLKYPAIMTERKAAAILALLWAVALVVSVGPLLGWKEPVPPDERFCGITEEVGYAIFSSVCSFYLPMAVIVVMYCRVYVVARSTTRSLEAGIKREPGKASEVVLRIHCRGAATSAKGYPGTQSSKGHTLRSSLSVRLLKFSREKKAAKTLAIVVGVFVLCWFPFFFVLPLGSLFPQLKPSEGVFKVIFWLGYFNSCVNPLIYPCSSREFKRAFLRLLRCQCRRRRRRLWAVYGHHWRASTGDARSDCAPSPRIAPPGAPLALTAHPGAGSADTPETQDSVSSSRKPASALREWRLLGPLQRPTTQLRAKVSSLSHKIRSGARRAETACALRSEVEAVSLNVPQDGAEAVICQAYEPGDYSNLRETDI
Structures can show the parent of a compound that is named as a salt.
recorded_endpoint: pKi
Keep it numeric: pKi is minus log10 of the concentration in mol/L.

These solved cases illustrate the format of a correct answer.
# compound, system_under_test, pKi
data = [
    ("CCN(C(=O)Nc1cccc2c1CCCC2c1c[nH]cn1)C1CCCCC1 (stereo not drawn)", "α1d (rat receptor expressed in mouse fibroblasts) (Rattus norvegicus)", 5.68),
    ("CC(C)[C@H]1CC[C@H](C)C[C@@H]1OC(=O)Nc1cccc2c1CCCC2c1c[nH]cn1 (stereo partly drawn)", "α1d (rat receptor expressed in mouse fibroblasts) (Rattus norvegicus)", 6.16),
    ("COc1ccc(NS(C)(=O)=O)c2c1C(c1c[nH]cn1)CCC2 (stereo not drawn) [Example 26, Maleate]", "α1d (rat receptor expressed in mouse fibroblasts) (Rattus norvegicus)", 5.00),
    ("CCS(=O)(=O)Nc1cccc2c1CCCC2c1c[nH]c(C)n1.O=C(O)/C=C\\C(=O)O (stereo not drawn) [Example 84, Maleate]", "α1d (rat receptor expressed in mouse fibroblasts) (Rattus norvegicus)", 5.00),
]

Ask: Please report pKi with α1d (rat receptor expressed in mouse fibroblasts) (Rattus norvegicus) for item Cc1noc(C)c1S(=O)(=O)Nc1cccc2c1CCCC2c1c[nH]cn1 (stereo not drawn) .
Result: 5.00

Ask: Please report pKi with α1d (rat receptor expressed in mouse fibroblasts) (Rattus norvegicus) for item CC1CC(C)CN(C(=O)Nc2cccc3c2CCCC3c2c[nH]cn2)C1 (stereo not drawn) .
Result: 5.00

Ask: Please report pKi with α1d (rat receptor expressed in mouse fibroblasts) (Rattus norvegicus) for item CCS(=O)(=O)Nc1ccc(OC)c2c1CCCC2c1c[nH]cn1 (stereo not drawn) [Example 25, Maleate] .
Result: 5.00

Ask: Please report pKi with α1d (rat receptor expressed in mouse fibroblasts) (Rattus norvegicus) for item CCS(=O)(=O)Nc1cccc2c1OCCC2c1c[nH]cn1 (stereo not drawn) [Example 79] .
Result: 5.00

Ask: Please report pKi with α1d (rat receptor expressed in mouse fibroblasts) (Rattus norvegicus) for item O=S(=O)(C=Cc1ccccc1)Nc1cccc2c1CCCC2c1cnc[nH]1 (stereo not drawn) .
Result: 6.45

Ask: Please report pKi with α1d (rat receptor expressed in mouse fibroblasts) (Rattus norvegicus) for item CN(C)S(=O)(=O)Nc1cccc2c1CCCC2c1c[nH]cn1 (stereo not drawn) .
Result: 5.80

Ask: Please report pKi with α1d (rat receptor expressed in mouse fibroblasts) (Rattus norvegicus) for item `C=C(c1cccc(NS(C)(=O)=O)c1)c1c[nH]cn1` .
Result: 5.70

* * *

biological target: α1b (hamster receptor expressed in mouse fibroblasts) (Mesocricetus auratus, UniProt P18841); construct: expressed in transfected cells; host or cells: mouse fibroblasts; experiment: Radioligand binding, [3H]-prazosin, α1b; conditions: hamster receptor expressed in mouse fibroblasts, [3H]-prazosin; read-out: Radioligand Binding Ki α1b (Hamster)
Structures can show the parent of a compound that is named as a salt.
recorded_endpoint: pKi
Keep it numeric: pKi is minus log10 of the concentration in mol/L.

These solved cases illustrate the format of a correct answer.
# compound, recorded_endpoint, numeric_readout
measured = [
    ("O=S(=O)(Nc1cccc2c1CCCC2c1c[nH]cn1)C1CC1 (stereo not shown) [Example 27, Maleate]", "pKi", 5.00),
    ("C=C(c1cccc(NS(C)(=O)=O)c1)c1c[nH]cn1", "pKi", 5.00),
    ("CS(=O)(=O)Nc1ccc(Cl)c2c1CCCC2c1c[nH]cn1.O=C(O)/C=C\\C(=O)O (stereo not shown) [Example 43, Maleate]", "pKi", 5.00),
]

// next item, pKi requested
Ask: Given O=S(=O)(C=Cc1ccccc1)Nc1cccc2c1CCCC2c1cnc[nH]1 (stereo not shown) , respond with its pKi.
Result: 6.41

* * *

recorded_endpoint: melting point

These solved cases illustrate the format of a correct answer.
# compound, recorded_endpoint, result
data = [
    ("CCS(=O)(=O)Nc1cccc2c1CCCC2c1c[nH]c(C)n1.O=C(O)/C=C\\C(=O)O (centres unmarked)", "melting point", "73 to 77 °C"),
    ("CN(C)S(=O)(=O)Nc1cccc2c1CCCC2c1c[nH]cn1 (centres unmarked)", "melting point", "208 to 210 °C"),
]

Ask: Given `C=C(c1cccc(NS(=O)(=O)CC(F)(F)F)c1)c1c[nH]cn1.O=C(O)/C=C\C(=O)O` , respond with its melting point.
Result: 149 to 153 °C

Ask: Given CS(=O)(=O)Nc1ccc(O)c2c1CCCC2c1c[nH]cn1.O=C(O)/C=C\C(=O)O (centres unmarked) , respond with its melting point.
Result: 127 to 131 °C

Ask: Given CCS(=O)(=O)Nc1ccc(Cl)c2c1CCCC2c1c[nH]cn1.O=C(O)/C=C\C(=O)O (centres unmarked) , respond with its melting point.
Result: 151 to 155 °C

* * *

Target: α1b (hamster receptor expressed in mouse fibroblasts) (Mesocricetus auratus)
Construct: expressed in transfected cells; host or cells: mouse fibroblasts
Sequence (P18841 1-515): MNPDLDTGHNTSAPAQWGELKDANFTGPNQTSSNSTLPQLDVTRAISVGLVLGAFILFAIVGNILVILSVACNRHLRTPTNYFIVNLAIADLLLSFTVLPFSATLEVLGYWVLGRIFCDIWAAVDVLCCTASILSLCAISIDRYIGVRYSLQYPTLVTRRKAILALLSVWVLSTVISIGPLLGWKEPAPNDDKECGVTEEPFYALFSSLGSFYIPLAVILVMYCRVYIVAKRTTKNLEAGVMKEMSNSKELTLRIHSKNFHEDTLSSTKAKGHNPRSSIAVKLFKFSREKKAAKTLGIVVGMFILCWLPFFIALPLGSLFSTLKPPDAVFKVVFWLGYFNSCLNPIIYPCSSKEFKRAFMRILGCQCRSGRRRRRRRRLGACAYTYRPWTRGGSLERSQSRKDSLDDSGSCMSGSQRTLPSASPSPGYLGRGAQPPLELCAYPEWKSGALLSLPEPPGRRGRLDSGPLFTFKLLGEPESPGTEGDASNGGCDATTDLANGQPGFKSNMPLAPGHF
Assay: Radioligand binding, [3H]-prazosin, α1b
recorded_endpoint: pKi
Keep it numeric: pKi is minus log10 of the concentration in mol/L.

These solved cases illustrate the format of a correct answer.
# molecule, pKi
records = [
    ("O=C(Nc1cccc2c1CCCC2c1c[nH]cn1)N1CCOCC1 (stereo not shown) [Example 117]", 5.00),
    ("CCS(=O)(=O)Nc1cccc2c1COC2c1c[nH]cn1.O=C(O)/C=C\\C(=O)O (stereo not shown) [Example 87, Maleate]", 5.00),
    ("CCS(=O)(=O)Nc1cccc(C(=C2CCCCC2)c2c[nH]cn2)c1 [Example 56]", 7.79),
    ("Cc1ccc(OC(=O)Nc2cccc3c2CCCC3c2c[nH]cn2)cc1 (stereo not shown) [Example 124]", 5.83),
    ("CC(C)(OC(=O)Nc1cccc2c1CCCC2c1c[nH]cn1)C(Cl)(Cl)Cl (stereo not shown) [Example 122]", 5.00),
]

Ask: Given CCS(=O)(=O)Nc1cc(Cl)cc2c1CCCC2c1c[nH]cn1 (stereo not shown) [Example 132] , respond with its pKi.
Result: 5.00

Ask: Given O=C(Nc1cccc2c1CCCC2c1c[nH]cn1)OCC(Cl)(Cl)Cl (stereo not shown) [Example 121] , respond with its pKi.
Result: 5.73

Ask: Given COC(=O)Nc1cccc2c1CCCC2c1c[nH]cn1 (stereo not shown) [Example 119] , respond with its pKi.
Result: 5.00

Ask: Given CCS(=O)(=O)Nc1cc(C2CCCCC2)cc2c1CCCC2c1c[nH]cn1 (stereo not shown) [Example 101] , respond with its pKi.
Result: 6.05

Ask: Given C=C(c1cccc(NS(=O)(=O)CC(F)(F)F)c1)c1c[nH]cn1.O=C(O)/C=C\C(=O)O [Example 91, Maleate] , respond with its pKi.
Result: 5.00

* * *

Molecular target: α1b (hamster receptor expressed in mouse fibroblasts) (Mesocricetus auratus)
Construct: expressed in transfected cells; host or cells: mouse fibroblasts
Sequence (P18841 1-515): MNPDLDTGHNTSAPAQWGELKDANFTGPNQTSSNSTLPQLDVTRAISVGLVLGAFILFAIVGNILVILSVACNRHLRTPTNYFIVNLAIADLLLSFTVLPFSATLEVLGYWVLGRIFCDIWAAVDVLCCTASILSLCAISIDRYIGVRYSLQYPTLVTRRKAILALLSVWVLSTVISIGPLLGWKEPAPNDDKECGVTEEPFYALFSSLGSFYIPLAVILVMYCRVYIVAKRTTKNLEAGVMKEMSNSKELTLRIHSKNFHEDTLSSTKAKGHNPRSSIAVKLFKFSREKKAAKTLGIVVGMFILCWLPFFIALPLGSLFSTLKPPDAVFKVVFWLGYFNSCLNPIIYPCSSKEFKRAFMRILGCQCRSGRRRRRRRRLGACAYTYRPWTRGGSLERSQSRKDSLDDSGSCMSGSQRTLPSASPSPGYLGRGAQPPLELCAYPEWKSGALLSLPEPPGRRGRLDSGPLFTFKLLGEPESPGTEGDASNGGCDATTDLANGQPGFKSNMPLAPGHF
Assay: Radioligand binding, [3H]-prazosin, α1b
Details: hamster receptor expressed in mouse fibroblasts, [3H]-prazosin; read-out: Radioligand Binding Ki α1b (Hamster)
The following compounds are shown together with reported pKi values.
Keep it numeric: pKi is minus log10 of the concentration in mol/L.

These solved cases illustrate the format of a correct answer.
# compound, pKi
data = [
    ("CCS(=O)(=O)Nc1cccc2c1OCCC2c1c[nH]cn1 (single isomer, unassigned; (+)) [Example 95]", 5.00),
    ("O=C(O)/C=C\\C(=O)O.O=S(=O)(CC(F)(F)F)Nc1cccc2c1CCCC2c1c[nH]cn1 (centres unmarked) [Example 20, Maleate]", 5.00),
    ("CCCN(CCC)C(=O)Nc1cccc2c1CCCC2c1c[nH]cn1 (centres unmarked) [Example 112]", 5.00),
    ("O=S(=O)(Cc1ccccc1)Nc1cccc2c1CCCC2c1cnc[nH]1 (centres unmarked) [Example 67]", 5.62),
    ("CCS(=O)(=O)Nc1cccc2c1OCCC2c1c[nH]cn1 (centres unmarked) [Example 79]", 5.00),
    ("O=C(Nc1cccc2c1CCCC2c1c[nH]cn1)C(F)(F)F.O=C(O)/C=C\\C(=O)O (centres unmarked) [Example 17, maleate]", 5.00),
]

Ask: Please report pKi with α1b (hamster receptor expressed in mouse fibroblasts) (Mesocricetus auratus) for item CCS(=O)(=O)Nc1cccc(C(=C(C)C)c2c[nH]cn2)c1 [Example 94] .
Result: 5.93

Ask: Please report pKi with α1b (hamster receptor expressed in mouse fibroblasts) (Mesocricetus auratus) for item COCCN(CCOC)C(=O)Nc1cccc2c1CCCC2c1c[nH]cn1 (centres unmarked) [Example 116] .
Result: 5.00
